# subject.of.test: Pro-Link-tagged Human GLP-1R (human, UniProt P43220 24-463)
# method.notes: cell-based or functional assay
observable: hGLP1R B-Arrestin2 Rel EC50

* YXEGTFTSDYSIXLDKKAQXEFIEYLIAGGPSSGAPPPS (Aib2, αMeL13, K17 conjugated to (2-[2-(2-Amino-ethoxy)-ethoxy]-acetyl)2-(γ-Glu)-CO-(CH2)18-CO2H, Aib20, C-terminal amide (NH2)) [Example 289] | 12.4 nM
* XXEGTFTSDYSIXLDXKAQXEFIEYLIAGGPSSGAPPPS (D-Tyr1, Aib2, αMeL13, Orn16, K17 conjugated to (2-[2-(2-Amino-ethoxy)-ethoxy]-acetyl)2-(γ-Glu)-CO-(CH2)18-CO2H, Aib20, C-terminal amide (NH2)) [Example 349] | 15.1 nM
* YXEGTXTSDYSILLDKKAQXAFIEYLIEGGPSSG (Aib2, αMeF(2F)6, K17 conjugated to (2-[2-(2-Amino-ethoxy)-ethoxy]-acetyl)2-(γ-Glu)-CO-(CH2)16-CO2H, Aib20, C-terminal amide (NH2)) [Example 302] | 2.19 nM
* XXEGTFTSDYSIXLDXKAQXDFIEYLIAGGPSSGAPPPS (D-Tyr1, Aib2, αMeL13, Orn16, K17 conjugated to (2-[2-(2-Amino-ethoxy)-ethoxy]-acetyl)2-(γ-Glu)-CO-(CH2)18-CO2H, Aib20, C-terminal amide (NH2)) [Example 369] | 41.4 nM
* YXEGTXTSDXSIXLDXKAQXEFIXXLIEGGPSSGAPPPS (Aib2, αMeF(2F)6, 4Pal10, αMeL13, Orn16, K17 conjugated to (2-[2-(2-Amino-ethoxy)-ethoxy]-acetyl)2-(γ-Glu)-CO-(CH2)16-CO2H, Aib20, D-Glu24, αMeY25, C-terminal amide (NH2)) [Example 4] | 4.8 nM
* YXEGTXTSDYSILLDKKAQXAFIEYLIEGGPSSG (Aib2, αMeF6, K17 conjugated to (2-[2-(2-Amino-ethoxy)-ethoxy]-acetyl)2-(γ-Glu)-CO-(CH2)16-CO2H, Aib20, C-terminal amide (NH2)) [Example 301] | 2.67 nM
